# test-target: GSK3β kinase (Homo sapiens (Human), UniProt P49841)
# Sequence (P49841 whole entry): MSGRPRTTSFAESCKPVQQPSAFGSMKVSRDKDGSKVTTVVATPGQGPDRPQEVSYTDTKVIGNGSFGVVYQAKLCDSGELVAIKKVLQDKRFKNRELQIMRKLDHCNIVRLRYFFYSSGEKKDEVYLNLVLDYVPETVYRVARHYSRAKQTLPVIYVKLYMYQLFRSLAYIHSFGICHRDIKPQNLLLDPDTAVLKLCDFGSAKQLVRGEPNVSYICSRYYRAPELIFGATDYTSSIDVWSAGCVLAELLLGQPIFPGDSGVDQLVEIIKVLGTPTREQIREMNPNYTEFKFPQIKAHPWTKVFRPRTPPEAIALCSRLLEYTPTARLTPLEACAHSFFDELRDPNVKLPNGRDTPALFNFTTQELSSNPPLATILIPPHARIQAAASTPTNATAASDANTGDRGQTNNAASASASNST
# test-name: GSK3β kinase assay (Ser/Thr 09 peptide Z-lyte FRET)
# Assay type: biochemical
# assay-context: read-out: EC50 (method: IC50)
metric-name: IC50 (nM)

Please review the following examples before continuing.
In [3]: df
Out[3]:
                                   molecule  assay_value
0  O=C(Nc1ccc(F)cc1)c1n[nH]c2ccc(-c3cnc4n3CCNC4)cc12 [Compound 52]           11
1  O=C(Nc1ccc(CN2CCCC2)cc1)c1n[nH]c2ccc(-c3cnn(C4CC4)c3)cc12 [Compound 72]           40

P. Cn1cc(-c2cc3c(C(=O)N[C@@H]4CCCC[C@H]4F)n[nH]c3cc2F)cn1 [Compound 10]
Q. CN1Cc2ccc(NC(=O)c3n[nH]c4cc(F)c(-c5cnn(C)c5)cc34)cc2C1 [Compound 85]
R. CC(C)CN1CC[C@H](NC(=O)c2n[nH]c3cc(F)c(-c4cnn(C)c4)cc23)[C@@H](F)C1 [Compound 34]
S. CN1CCC(Oc2ccc(NC(=O)c3n[nH]c4cc(F)c(-c5cnn(C(F)F)c5)cc34)cc2)CC1 [Compound 80]
T. Cn1cc(-c2ccc3[nH]nc(C(=O)N[C@H]4CC[C@H](CN5CC(F)C5)CC4)c3c2)cn1 [Compound 23]
Lookup: # desc sort on IC50 across 5 molecules Thanks in advance for listing the labels in the requested order.
Found: S, R, Q, P, T
(S: 783 nM, R: 50 nM, Q: 35 nM, P: 9 nM, T: 5 nM)

====

# test-target: GSK3β kinase (Homo sapiens (Human), UniProt P49841)
# test-name: GSK3β kinase assay (Ser/Thr 09 peptide Z-lyte FRET)
# Format: biochemical
# assay-context: read-out: EC50 (method: IC50)
# Protocol: Representative compounds were screened using the assay procedure for GSK3β kinase activity as described below. This is a non-radioactive assay using fluorescence resonance energy transfer (FRET) between coumarin and fluorescein to detect kinase activity which is represented as ratio of coumarin emission/fluorescein emission. The mixture is allowed to incubate with the representative compounds for one hour at room temperature. All reactions were performed in duplicate. […]
metric-name: IC50 (nM)

Worked cases, answers included:
>>> df
                           molecular_string  unit_symbol  assay_value
0  Cn1cc(-c2ccc3[nH]nc(C(=O)Nc4cnn(C5CCNCC5)c4)c3c2)cn1           nM            5
1  Cn1cc(-c2cc(F)c3[nH]nc(C(=O)Nc4ccc(CN5CCCC5)cc4)c3c2)cn1           nM           41
2  Cn1cc(-c2ccc3[nH]nc(C(=O)N[C@H]4CC[C@H](CN5CCCC5)CC4)c3c2)cn1           nM           11
3  CN1CCC(n2cc(-c3ccc4[nH]nc(C(=O)Nc5ccc(OC(F)F)cc5)c4c3)cn2)CC1           nM         3020
4  O=C(Nc1ccc(OC(F)F)cc1)c1n[nH]c2ccc(-c3cnc4n3CCNC4)cc12           nM           21

1. O=C(Nc1ccc(OC(F)F)cc1)c1n[nH]c2ccc(-c3cnn(C4CCNCC4)c3)cc12
2. Cn1cc(-c2ccc3[nH]nc(C(=O)Nc4ccc(CN5CCCC5)cc4)c3c2)cn1
3. Cc1ncc(-c2cc3c(C(=O)Nc4ccc(OC5CCN(C)CC5)cc4)n[nH]c3cc2F)s1
Lookup: Would you mind ranking these compounds by ascending IC50? Provide the ranking by listing each label in its place in the requested order.
Found: 2, 3, 1
(2: 6 nM, 3: 94 nM, 1: 1230 nM)
